tested on: MPNST complex spheroid with HUVEC/MSC, growth, % test/control; assay: Anticancer human tumor MPNST cell line growth inhibition [Asc]; settings: second compound 3 µM; first compound 0.316 µM; hits give low values;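 further: compounds left on spheroids for seven days before reading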
Lab note: compare viability, T/C with 60%, writing class 1 if less and class 0 if equal or more.

Molecule	Label
COc1c(OCCCN2CCOCC2)ccc2c3n(c(=NC(=O)c4cnc(N)nc4)nc12)CCN3 + CCN1C(C(=O)NC23CCC(C(=O)O)(CC2)CC3)C(c2cccc(Cl)c2F)C2(C(=O)Nc3cc(Cl)ccc32)C12CCCCC2	class 1
C=C(F)C(=O)N1CCN(c2nc(OCC3CCCN3C)nc3c2CCN(c2cccc4cccc(Cl)c24)C3)CC1CC#N (stereo not drawn) + CCN1C(C(=O)NC23CCC(C(=O)O)(CC2)CC3)C(c2cccc(Cl)c2F)C2(C(=O)Nc3cc(Cl)ccc32)C12CCCCC2	class 0
CNC(C)C(=O)NC1CN(S(=O)(=O)c2cccc(S(=O)(=O)N3CCC4CCC(C(=O)NC(c5ccccc5)c5ccccc5)N4C(=O)C(NC(=O)C(C)NC)C3)c2)CCC2CCC(C(=O)NC(c3ccccc3)c3ccccc3)N2C1=O (stereo not drawn) + CCN1C(C(=O)NC23CCC(C(=O)O)(CC2)CC3)C(c2cccc(Cl)c2F)C2(C(=O)Nc3cc(Cl)ccc32)C12CCCCC2	class 0
C#Cc1c(F)ccc2cc(O)cc(-c3ncc4c(N5CC6CCC(C5)N6)nc(OCC56CCCN5CC(F)C6)nc4c3F)c12 (stereo not drawn) + CCN1C(C(=O)NC23CCC(C(=O)O)(CC2)CC3)C(c2cccc(Cl)c2F)C2(C(=O)Nc3cc(Cl)ccc32)C12CCCCC2	class 1
O=C(c1cc(Cc2n[nH]c(=O)c3ccccc23)ccc1F)N1CCN(C(=O)C2CC2)CC1 + CCN1C(C(=O)NC23CCC(C(=O)O)(CC2)CC3)C(c2cccc(Cl)c2F)C2(C(=O)Nc3cc(Cl)ccc32)C12CCCCC2	class 0
O=C(c1ccc(F)c(F)c1Nc1ccc(I)cc1F)N1CC(O)([C@@H]2CCCCN2)C1 + CCN1C(C(=O)NC23CCC(C(=O)O)(CC2)CC3)C(c2cccc(Cl)c2F)C2(C(=O)Nc3cc(Cl)ccc32)C12CCCCC2	class 1
CCN1CCN(Cc2ccc(Nc3ncc(F)c(-c4cc(F)c5nc(C)n(C(C)C)c5c4)n3)nc2)CC1 + CCN1C(C(=O)NC23CCC(C(=O)O)(CC2)CC3)C(c2cccc(Cl)c2F)C2(C(=O)Nc3cc(Cl)ccc32)C12CCCCC2	class 0
